Please find below pIC50 data on MAGL (Homo sapiens) compiled from the literature.
pIC50: −log10 of the molar value.
result_type: pIC50

molecule | tested_system | result_type | observed
O=C(c1ccc2[nH]c(-c3ccccc3)nc2c1)N1CC(N2CCN(C(=O)c3nccs3)CC2)C1 | MAGL (Homo sapiens) | pIC50 | 6.93

a. O=C1NC(CCC(=O)N2CC3(CCC(Cc4ccc(C(F)(F)F)nc4)C3)C2)CO1 (single isomer, unassigned)
b. O=C1CO[C@H]2CCN(C(=O)N3CCC(C#Cc4ccccc4Cl)CC3)C[C@H]2N1
Please choose the item with the lower pIC50 value from this pair: a and b Pick one; state its label. a

====

Please find below IC50 data on MAGL (Homo sapiens) compiled from the literature.
result_type: IC50 (nM)

In the examples that follow, each entry is paired with its recorded IC50.
compound | unit_of_measure | IC50
O=C1N[C@@H](COC(=O)N2CC(OCc3ccc(C(F)(F)F)cc3F)C2)CO1 | nM | 33
O=C(c1nccs1)N1CC[C@H](NC2CN(C(=O)c3cccc4c3CCN4c3ccc(F)cc3)C2)C1 | nM | 94.5
Cc1sc(C(=O)N2CC(N3CCN(C(=O)c4nccs4)CC3)C2)cc1-c1cccc(F)c1 | nM | 6
O=C(c1ccns1)N1CC(N2CCN(C(=O)c3cc4cc(C(F)(F)F)ccc4s3)CC2)C1 | nM | 88
O=C1CO[C@H]2CCN(C(=O)N3CC(c4ccc(C5CCOC5)cc4)C3)C[C@H]2N1 (single isomer, unassigned) | nM | 33.1

1. O=C1N[C@H](CCC(=O)N2CC(c3cnc(N4CCC(C(F)(F)F)C4)nc3)C2)CO1 (stereo partly drawn)
2. O=C1CO[C@H]2CCN(C(=O)N3CC(C#Cc4cccc(Cl)c4)C3)C[C@H]2N1
// which entry has the larger IC50 value, 1 or 2 ? Pick one; state its label. 1
(1: 216 nM, 2: 8 nM)

====

Please find below IC50 data on MAGL (Homo sapiens, UniProt Q99685) compiled from the literature.
Sequence (Q99685 whole entry, species assumed): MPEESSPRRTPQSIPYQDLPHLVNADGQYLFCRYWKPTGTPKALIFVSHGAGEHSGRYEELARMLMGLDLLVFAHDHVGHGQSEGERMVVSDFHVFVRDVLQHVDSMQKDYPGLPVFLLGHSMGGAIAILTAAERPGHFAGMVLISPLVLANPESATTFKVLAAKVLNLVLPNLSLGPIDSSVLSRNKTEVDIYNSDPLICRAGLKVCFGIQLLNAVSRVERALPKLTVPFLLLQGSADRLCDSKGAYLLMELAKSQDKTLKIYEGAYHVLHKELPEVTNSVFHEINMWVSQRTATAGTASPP
result_type: IC50 (nM)

P. O=C(c1ccc2c(ccn2-c2ccc(F)cc2)c1)N1CCC(C2CN(C(=O)c3ccc[nH]3)C2)CC1
Q. Cc1nc2cc(C(=O)N3CC(N4CCN(C(=O)c5nccs5)CC4)C3)ccc2n1CC(F)(F)F
R. O=C(c1cccc(-c2n[nH]c(=O)o2)c1Cl)N1CCN2C[C@@H](c3ccc(F)c(Cl)c3)OC[C@@H]2C1
S. O=C(c1cscn1)N1CCN(C2CN(C(=O)c3cc4ccc(C(F)(F)F)nc4o3)C2)CC1
sort_by: IC50; order: ascending; scope: items listed above Kindly provide the labels arranged according to the requested ordering. P, R, Q, S
(P: 13.8 nM, R: 144 nM, Q: 1370 nM, S: 2080 nM)

====

Please find below IC50 data on MAGL (Homo sapiens) compiled from the literature.
result_type: IC50 (nM)

molecule | unit_of_measure | observed
Cc1c(C(=O)N2CC(N[C@H]3CCN(C(=O)c4ccccc4)C3)C2)sc2cc(F)ccc12 | nM | 298
CC(C)(C)c1ccc(C2CN(C(=O)CC[C@@H]3COC(=O)N3)C2)nc1 | nM | 7
O=C1N[C@H](CCC(=O)N2CC(c3ccc(Oc4ccc(F)cc4)cc3)C2)CO1 | nM | 1

1. O=C(c1ccc(-c2ccccc2)cc1)N1CCN(C2CN(C(=O)c3csnn3)C2)CC1
2. COc1cncc(-c2ccc3cc(C(=O)N4CC(N5CCN(C(=O)c6nccs6)CC5)C4)[nH]c3c2)c1
3. Cc1cc(C(=O)N2CCN(c3nc4nc(Cl)ccc4o3)CC2)cnc1OCc1cc(F)cc(C#N)c1
Give the ascending ranking of the items by reported IC50. Kindly provide the labels arranged according to the requested ordering. 3, 2, 1
(3: 42 nM, 2: 123 nM, 1: 1760 nM)

1. COc1cc(C(=O)N2CCN(c3nc4nc(C)ccc4o3)CC2)cnc1OCC1(C(F)(F)F)CC1
2. O=C1CO[C@H]2CCN(C(=O)N3CC(C(OCC(F)(F)F)c4ccc(F)cc4)C3)C[C@H]2N1 (single isomer, unassigned)
Please choose the item with the lower IC50 value from this pair: 1 and 2 Pick one; state its label. 1
(1: 138 nM, 2: 434 nM)

====

Please find below IC50 data on MAGL (Homo sapiens) compiled from the literature.
result_type: IC50 (µM)

In the examples that follow, each entry is paired with its recorded IC50.
molecule | tested_system | result_type | observed
O=C(c1ccc2[nH]ncc2c1)N1CC(N2CCN(C(=O)c3nccs3)CC2)C1 | MAGL (Homo sapiens) | IC50 | 2.81
Cc1c(C(=O)N2CC(N3CCN(C(=O)c4ccc[nH]4)CC3)C2)sc2cc(C(F)(F)F)ccc12 | MAGL (Homo sapiens) | IC50 | 0.009
NCCOCCOCCC(=O)NCCOc1cccc(C(c2ccccc2)C2CCN(C(=O)N3CC[C@@H]4OCC(=O)N[C@@H]4C3)CC2)c1 (single isomer, unassigned) | MAGL (Homo sapiens) | IC50 | 0.0078

P. O=C1N[C@H](CCC(=O)N2CCC(CNS(=O)(=O)c3ccc(OC(F)(F)F)cc3)CC2)CO1
Q. O=C(c1ccc(Cc2cccc(C(F)(F)F)c2)cc1)N1CCC(C2CN(C(=O)c3ccc[nH]3)C2)CC1
R. CC1CN(C2CN(C(=O)c3ccc(-c4ccccc4)cc3)C2)CCN1C(=O)c1nccs1 (centres unmarked)
S. O=C(c1ccc(Oc2cccc(F)n2)cc1)N1CC(N2CCN(C(=O)c3cscn3)CC2)C1
Give the ascending ranking of the items by reported IC50. Kindly provide the labels arranged according to the requested ordering. Q, P, S, R
(Q: 0.011 µM, P: 0.434 µM, S: 1.13 µM, R: 4.23 µM)

====

Please find below IC50 data on MAGL (Homo sapiens) compiled from the literature.
result_type: IC50 (nM)

molecule | IC50, nM
O=C(c1ccc(-c2ccc(C(F)(F)F)s2)cc1)N1CC(N2CCN(C(=O)c3ccc[nH]3)CC2)C1 | 26

I. Cc1ccc(C(c2ccccc2)C2CCN(C(=O)N3CC[C@@H]4OCC(=O)N[C@@H]4C3)CC2)cc1 (single isomer, unassigned)
II. CS(=O)(=O)c1cc(Cl)ccc1-c1ccc(C2CN(C(=O)CCC3CNC(=O)N3)C2)cc1 (single isomer, unassigned)
III. Cc1nc2cc(C(=O)N3CC(N4CCN(C(=O)c5cscn5)CC4)C3)ccc2n1-c1ccc(F)cc1
IV. O=C(c1cc2cc(Br)cnc2o1)N1CC(N2CCN(C(=O)c3nccs3)CC2)C1
Rank descending by IC50. Kindly provide the labels arranged according to the requested ordering. IV, III, II, I

====

Please find below IC50 data on MAGL (Homo sapiens) compiled from the literature.
result_type: IC50 (nM)

In the examples that follow, each entry is paired with its recorded IC50.
compound | unit_of_measure | IC50
O=C1CO[C@H]2CCN(C(=O)N3CC(c4ccc(OC(F)(F)F)cc4F)C3)C[C@H]2N1 | nM | 8
O=C1NCC(CCC(=O)N2CC(OCc3ccc(C(F)(F)F)cc3F)C2)N1 (stereo not drawn) | nM | 860
O=C(c1ccc2nn(Cc3ccc(C(F)(F)F)cc3)cc2c1)N1CC(N2CCN(C(=O)c3nccs3)CC2)C1 | nM | 5

I. O=C(c1ccccn1)N1CCN(C2CN(C(=O)c3sc4cc(F)ccc4c3Cl)C2)CC1
II. Cc1cc(-n2ccc3cc(C(=O)N4CC(N5CCN(C(=O)c6ccccc6)CC5)C4)ccc32)ccn1
III. O=C(c1cscn1)N1CC[C@H](NC2CN(C(=O)c3sc4cc(C(F)(F)F)ccc4c3Cl)C2)C1
IV. O=C1CO[C@H]2CCN(C(=O)N3CC(c4ccc(OCC5(C(F)(F)F)CC5)cc4)C3)C[C@H]2N1
Give the ascending ranking of the items by reported IC50. Kindly provide the labels arranged according to the requested ordering. IV, III, II, I
(IV: 0.3 nM, III: 32.2 nM, II: 714 nM, I: 2140 nM)

P. O=C(c1cscn1)N1CCN(C2CN(C(=O)c3cccc4nc(-c5cccc(F)c5)oc34)C2)CC1
Q. Cc1nc2cc(C(=O)N3CC(N4CCN(C(=O)c5nccs5)CC4)C3)ccc2n1C1CCC(F)(F)CC1
Please choose the item with the lower IC50 value from this pair: P and Q Pick one; state its label. P

P. O=C1CO[C@H]2CCN(C(=O)N3CCC(Oc4ccc(C(F)(F)F)c(N5CCOCC5)c4)CC3)C[C@H]2N1
Q. O=C1CO[C@H]2CCN(C(=O)N3CC(c4ccc(-c5ccnc(F)c5)cc4)C3)C[C@H]2N1
Please choose the item with the lower IC50 value from this pair: P and Q Pick one; state its label. P

====

Please find below IC50 data on MAGL (Homo sapiens) compiled from the literature.
result_type: IC50 (nM)

I. O=C1N[C@H](CCC(=O)N2CC3(CCN(Cc4ccc(C(F)(F)F)cc4F)CC3)C2)CO1
II. O=C1CO[C@H]2CCN(C(=O)N3CC(c4ccc(Oc5ccccc5)cc4)C3)C[C@@H]2N1 (single isomer, unassigned)
III. O=C(c1cscn1)N1CCN(C2CN(C(=O)c3cc(-c4ccccc4)n(-c4ccccc4)n3)C2)CC1
Give the descending IC50 ranking for the 3 compounds listed above. Kindly provide the labels arranged according to the requested ordering. III, I, II
(III: 932 nM, I: 25 nM, II: 7 nM)

1. Cn1cc(-c2cccc(C(F)(F)F)c2)c2ccc(C(=O)N3CC(N[C@H]4CCN(C(=O)c5cscn5)C4)C3)cc21
2. Cn1nc(C(C)(C)C)nc1-c1ccc(C(=O)N2CCN(c3nc4nc(Cl)ccc4o3)CC2)cc1
// which entry has the larger IC50 value, 1 or 2 ? Pick one; state its label. 2
(2: 140 nM, 1: 25.1 nM)

a. O=C(c1ccc(OCC(F)(F)F)cc1)N1CC(N2CCN(C(=O)c3nccs3)CC2)C1
b. O=C(c1ccccc1)N1CC[C@H](NC2CN(C(=O)c3cc4cc(-c5ccc(Cl)s5)ccc4o3)C2)C1
c. COc1cccc2c(C)c(C(=O)N3CCN(C4CN(C(=O)c5cscn5)C4)CC3)[nH]c12
d. O=C(CCc1ccn[nH]1)N1CC(OCc2ccc(C(F)(F)F)cc2F)C1
Give the ascending ranking of the items by reported IC50. Kindly provide the labels arranged according to the requested ordering. b, a, d, c

A. O=C(CCCc1cnn[nH]1)N1CC2(CC(Oc3cncc(C(F)(F)F)n3)C2)C1
B. O=C(c1cccc(-c2c[nH]nc2F)c1Cl)N1CCN2C[C@@](O)(c3ccc(C(F)(F)F)[nH]c3=O)OC[C@@H]2C1
Please choose the item with the lower IC50 value from this pair: A and B Pick one; state its label. B
